All values here come from patent US20260125359A1.

- target_of_assay: PDGFR-α (Homo sapiens)
- Sequence (P16234 24-1089): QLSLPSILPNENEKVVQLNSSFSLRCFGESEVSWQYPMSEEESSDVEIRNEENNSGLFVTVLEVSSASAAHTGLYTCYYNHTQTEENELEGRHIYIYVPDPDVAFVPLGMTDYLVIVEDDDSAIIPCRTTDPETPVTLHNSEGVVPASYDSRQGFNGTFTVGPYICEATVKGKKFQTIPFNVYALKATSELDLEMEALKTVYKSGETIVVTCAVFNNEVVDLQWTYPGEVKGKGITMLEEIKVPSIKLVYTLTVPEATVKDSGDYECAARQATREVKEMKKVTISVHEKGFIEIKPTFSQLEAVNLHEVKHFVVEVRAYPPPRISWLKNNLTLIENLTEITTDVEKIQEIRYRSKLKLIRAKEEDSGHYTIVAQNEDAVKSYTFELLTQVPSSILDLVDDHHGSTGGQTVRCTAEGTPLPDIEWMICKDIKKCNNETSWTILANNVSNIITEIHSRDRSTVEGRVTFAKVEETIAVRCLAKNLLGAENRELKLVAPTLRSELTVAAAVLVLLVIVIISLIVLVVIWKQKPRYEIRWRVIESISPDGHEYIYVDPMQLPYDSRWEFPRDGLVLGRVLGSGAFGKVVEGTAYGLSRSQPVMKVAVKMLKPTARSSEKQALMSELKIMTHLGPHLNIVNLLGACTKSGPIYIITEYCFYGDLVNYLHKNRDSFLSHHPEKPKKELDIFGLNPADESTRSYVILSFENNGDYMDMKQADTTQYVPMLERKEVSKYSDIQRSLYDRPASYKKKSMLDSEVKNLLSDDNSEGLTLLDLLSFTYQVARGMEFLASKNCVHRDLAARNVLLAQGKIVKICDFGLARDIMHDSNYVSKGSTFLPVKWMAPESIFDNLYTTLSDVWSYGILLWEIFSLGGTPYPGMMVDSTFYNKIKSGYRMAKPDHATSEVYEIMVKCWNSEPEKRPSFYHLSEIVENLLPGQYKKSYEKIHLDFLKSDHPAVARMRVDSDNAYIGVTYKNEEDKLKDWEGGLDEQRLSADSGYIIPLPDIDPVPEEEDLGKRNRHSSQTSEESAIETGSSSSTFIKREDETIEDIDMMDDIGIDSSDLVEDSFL
- experimental_protocol: PDGFR-α in vitro kinase activity assay (HTRF kinEASE TK)
- Assay type: biochemical
- condition_context: compound 10 nM; read-out: PDGFRα inhibition rate, 10 nM
Please respond with reported inhibition at 0.01 µM for every item in the list.
Give the number; % is assumed, so skip it.

Incoming: I'd like to know its inhibition at 0.01 µM. The compound in question is CN1CCc2nc(NC(=O)c3cccc4c3CC[C@@H]4Oc3cncc(-c4cnn(C)c4)c3)sc2C1 [Compound 19f]
Outgoing: 14.5

Incoming: Need inhibition at 0.01 µM of Cn1ncc2ncc(N[C@H]3CCc4c(C(=O)Nc5cccc(C6CC6)c5)cccc43)cc21 , thanks.
Outgoing: 90

Incoming: Entry CN1CCc2nc(NC(=O)c3cccc4c3CC[C@@H]4Nc3cncc(-c4cnn(C)c4)c3)sc2C1 [Compound 14ba] has what inhibition at 0.01 µM?
Outgoing: 75.5

Incoming: Requested read-out: inhibition at 0.01 µM. Entry: Cc1cc(NC(=O)c2cccc3c2CC[C@@H]3Oc2cncc(-c3cnn(C)c3)c2)cc(C)n1 [Compound 19k]
Outgoing: 13.9

Incoming: Which value of inhibition at 0.01 µM has been reported for Cn1cc(-c2cncc(O[C@H]3CCc4c(C(=O)Nc5cncc(Cl)c5)cccc43)c2)cn1 [Compound 19a] in the records?
Outgoing: 40.5

###

Give measured inhibition at 0.1 µM for each item. Keep answers brief.
- target_of_assay: CSF-1R (Homo sapiens, UniProt P07333)
- Sequence (P07333 20-972): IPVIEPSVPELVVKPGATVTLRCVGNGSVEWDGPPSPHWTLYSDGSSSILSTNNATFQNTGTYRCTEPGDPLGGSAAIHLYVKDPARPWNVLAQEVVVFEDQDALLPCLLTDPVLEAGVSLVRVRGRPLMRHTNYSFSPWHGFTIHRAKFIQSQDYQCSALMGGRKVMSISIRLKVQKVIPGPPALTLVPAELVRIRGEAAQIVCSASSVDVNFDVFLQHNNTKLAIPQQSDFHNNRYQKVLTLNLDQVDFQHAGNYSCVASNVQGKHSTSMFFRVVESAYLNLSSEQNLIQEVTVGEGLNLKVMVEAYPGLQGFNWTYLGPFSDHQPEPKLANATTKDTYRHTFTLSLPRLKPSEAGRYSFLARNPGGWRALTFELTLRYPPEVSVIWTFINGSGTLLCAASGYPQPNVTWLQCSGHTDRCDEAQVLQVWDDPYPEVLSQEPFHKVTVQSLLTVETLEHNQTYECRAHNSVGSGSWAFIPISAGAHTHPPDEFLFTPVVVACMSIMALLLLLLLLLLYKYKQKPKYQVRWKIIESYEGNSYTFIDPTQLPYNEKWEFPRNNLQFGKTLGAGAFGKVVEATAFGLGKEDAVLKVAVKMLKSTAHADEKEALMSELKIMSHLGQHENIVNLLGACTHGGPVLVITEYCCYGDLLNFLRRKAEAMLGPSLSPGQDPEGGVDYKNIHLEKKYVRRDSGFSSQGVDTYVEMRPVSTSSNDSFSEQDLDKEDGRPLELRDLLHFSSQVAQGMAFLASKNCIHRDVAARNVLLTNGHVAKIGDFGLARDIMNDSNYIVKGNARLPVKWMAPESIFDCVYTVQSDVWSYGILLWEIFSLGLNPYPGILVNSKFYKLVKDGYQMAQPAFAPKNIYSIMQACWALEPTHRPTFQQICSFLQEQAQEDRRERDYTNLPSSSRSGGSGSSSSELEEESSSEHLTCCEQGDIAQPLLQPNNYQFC
- experimental_protocol: CSF-1R in vitro kinase activity assay (HTRF kinEASE TK)
- Format: biochemical
- condition_context: compound 100 nM; read-out: CSF-1R inhibition rate, 100 nM
Report only the number, with the unit % understood.

Incoming: Which inhibition at 0.1 µM value belongs to Cn1cc(-c2cncc(O[C@H]3CCc4c(C(=O)Nc5cncc(Cl)c5)cccc43)c2)cn1 [Compound 19a] ?
Outgoing: 100

Incoming: Would you kindly share the measured inhibition at 0.1 µM for Cn1ncc2ncc(N[C@H]3CCc4c(Nc5cc(C(C)(C)C)on5)cccc43)nc21 ?
Outgoing: 95.9

Incoming: Item under review: CN(c1cncc(-c2cnn(C)c2)c1)[C@H]1CCc2c(C(=O)Nc3cncc(Cl)c3)cccc21 . Reported inhibition at 0.1 µM?
Outgoing: 100

Incoming: inhibition at 0.1 µM lookup needed for CN1CCc2ccc(NC(=O)c3cccc4c3CC[C@@H]4Nc3cncc(-c4cnn(C)c4)c3)cc2C1 [Compound 14ap] , thanks.
Outgoing: 96.7

Incoming: Could you share which inhibition at 0.1 µM value was measured for Cc1cc(NC(=O)c2cccc3c2CC[C@@H]3Oc2cncc(-c3cnn(C)c3)c2)cc(C)n1 [Compound 19k] ?
Outgoing: 97.4

Incoming: inhibition at 0.1 µM for Cn1cc(-c2cncc(N[C@H]3CCc4c(C(=O)Nc5nn(C)c6ccccc56)cccc43)n2)cn1 [Compound 27g] ?
Outgoing: 95.8

Incoming: For Cn1ncc2ncc(N[C@H]3CCc4c(C(=O)Nc5cccc(C6CC6)c5)cccc43)cc21 , what is its reported inhibition at 0.1 µM?
Outgoing: 101

Incoming: Entry Cn1cc(-c2cnc(N)c(O[C@H]3CCc4c(C(=O)Nc5cccc(C6CC6)c5)cccc43)c2)cn1 has what inhibition at 0.1 µM?
Outgoing: 89.8

Incoming: Given the entry Cn1cc(-c2cncc(N[C@H]3CCc4c(Nc5cc(C(C)(C)C)on5)cccc43)c2)cn1 , report its measured inhibition at 0.1 µM.
Outgoing: 100

Incoming: // returns reported inhibition at 0.1 µM for input Cn1cc2ncc(O[C@H]3CCc4c(C(=O)Nc5nn(C)c6cccc(F)c56)cccc43)cc2n1 [Compound 76aw]
Outgoing: 99.1

Incoming: What value of inhibition at 0.1 µM has been recorded for this entry: CN1CCc2nc(NC(=O)c3cccc4c3CC[C@@H]4Oc3cncc(-c4cnn(C)c4)c3)sc2C1 [Compound 19f]
Outgoing: 95.4

Incoming: Dear colleague, I am looking for the recorded inhibition at 0.1 µM of the following compound: Cn1cc(-c2cncc(O[C@H]3CCc4c(C(=O)Nc5cccc(C6CC6)c5)cccc43)c2)cn1 [Compound 19b]
Outgoing: 97.4

Incoming: # inhibition at 0.1 µM lookup, item Cc1cccc(NC(=O)c2cccc3c2CC[C@@H]3Nc2cncc(-c3cnn(C)c3)c2)c1
Outgoing: 93.5

Incoming: Value lookup for inhibition at 0.1 µM; key = Cc1cccc(C(=O)Nc2cccc3c2CC[C@@H]3Oc2cncc(-c3cnn(C)c3)c2)c1
Outgoing: 90.5

Incoming: inhibition at 0.1 µM for Cn1cc(-c2cncc(N[C@H]3CCc4c(C(=O)Nc5cncc(Cl)c5)cccc43)c2)cn1 [Compound 14aa] ?
Outgoing: 95.3

Incoming: Can you look up the measured inhibition at 0.1 µM of Cn1cc2ncc(O[C@H]3CCc4c(C(=O)Nc5nn(C)c6ccccc56)cccc43)cc2n1 [Compound 76al] for me?
Outgoing: 103

Incoming: Record request: inhibition at 0.1 µM value, item Cc1cncc(NC(=O)c2cccc3c2CC[C@@H]3Oc2cncc(-c3cnn(C)c3)c2)c1 [Compound 19j]
Outgoing: 101

Incoming: Field request: inhibition at 0.1 µM | item: Cn1cc(-c2cncc(N[C@H]3CCc4c(Nc5noc(C(C)(C)C)n5)cccc43)c2)cn1 [Compound 42o]
Outgoing: 100

Incoming: Given the compound CN(C)Cc1cncc(NC(=O)c2cccc3c2CC[C@@H]3Oc2cncc(-c3cnn(C)c3)c2)c1 [Compound 19h] , what is its reported inhibition at 0.1 µM?
Outgoing: 96.6

Incoming: Request the reported inhibition at 0.1 µM associated with Cn1cc2ncc(O[C@H]3CCc4c(C(=O)Nc5cncc(Cl)c5)cccc43)cc2n1 [Compound 76ai]
Outgoing: 99.1

Incoming: Reported inhibition at 0.1 µM for CN(c1cnc2cn(C)nc2c1)[C@H]1CCc2c(C(=O)Nc3nn(C)c4ccccc34)cccc21 [Compound 80l] : what is it?
Outgoing: 98.4

Incoming: Give its inhibition at 0.1 µM value. Item: Cc1cccc(NC(=O)c2cccc3c2CC[C@@H]3Oc2cnc3cn(C)nc3c2)n1 [Compound 76bd]
Outgoing: 94.1

Incoming: # inhibition at 0.1 µM lookup, item Cn1ncc2ncc(O[C@H]3CCc4c(C(=O)Nc5cncc(Cl)c5)cccc43)cc21 [Compound 76ac]
Outgoing: 97.3

Incoming: Param item = Cn1cc2ncc(N[C@H]3CCc4c(C(=O)Nc5nc(C6CC6)cs5)cccc43)cc2n1 [Compound 74h] ; retrieve measured inhibition at 0.1 µM.
Outgoing: 96.3

Incoming: Quick check: inhibition at 0.1 µM of Cc1cncc(NC(=O)c2cccc3c2CC[C@@H]3Nc2cncc(-c3cnn(C)c3)c2)c1 [Compound 14as] ?
Outgoing: 97

Incoming: Data request, read-out inhibition at 0.1 µM, for Cn1cc(-c2cncc(N[C@H]3CCc4c(C(=O)Nc5ccc(C(F)(F)F)nc5)cccc43)c2)cn1 [Compound 14ah]
Outgoing: 101

Incoming: Any idea what inhibition at 0.1 µM was measured for CN1CCc2nc(NC(=O)c3cccc4c3CC[C@@H]4Nc3cncc(-c4cnn(C)c4)c3)sc2C1 [Compound 14ba] ?
Outgoing: 95.9

Incoming: Name the recorded inhibition at 0.1 µM for CN(c1cncc(-c2cnn(C)c2)c1)[C@H]1CCc2c(C(=O)Nc3cccc(C4CC4)c3)cccc21 [Compound 22a] .
Outgoing: 96.7

Incoming: Any idea what inhibition at 0.1 µM was measured for CN(c1cnc2cn(C)nc2c1)[C@H]1CCc2c(C(=O)Nc3cncc(Cl)c3)cccc21 [Compound 80k] ?
Outgoing: 96.5
